target: NRGN; test: pooled miR-30 sensor sort-seq; sequence = guide strand; settings: shRNA; further: reference of the scale not given here
measured.parameter: sensor-assay potency score (higher = more potent)

# biosequence, measured.result
rows = [
    ("TAGAATGTCGTCGTCCGGCTTG", -0.236),
    ("TCGTCGTCCGGCTTGGAGCAGG", -0.878),
    ("TTGCATAAACAAGAGAGCTGGA", 0.0661),
    ("TCTTTATCTTCTTCCGCGCCAT", -0.595),
    ("TTTAGCTGCGCACAGAACGAAA", -1.54),
    ("TATTGTTCACATTCCAACCCAG", -0.138),
    ("TATCTTCTTCCGCGCCATGTGG", -1.11),
    ("TTTCTTTAAGTGAGTGTGCTTG", -0.361),
    ("TTTGCATAAACAAGAGAGCTGG", -0.297),
]

----------
target: GORASP1; assay: pooled miR-30 sensor sort-seq; sequence = guide strand; conditions: shRNA
measured.parameter: sensor-assay potency score (higher = more potent)

# biosequence, tested.system, measured.result
data = [
    ("TACACCATCAGCTTCAAGGGCT", "GORASP1", 0.394),
    ("TCCATGTAGTCACTCTGCCTGG", "GORASP1", -1.3),
    ("TGACTTGGAGTTATACACCATC", "GORASP1", -1.14),
    ("TTATCCTCCAACTTATGGGGGA", "GORASP1", -0.359),
    ("AATATTAGCATTGATACCCATT", "GORASP1", -1.46),
    ("TTCAGTAGTGCCTTCAGGGTGT", "GORASP1", 0.45),
]

----------
Entries and their sensor-assay potency score (higher = more potent) values follow.
biological target: SNTG1; assay: pooled miR-30 sensor sort-seq; sequence = guide strand; details: shRNA
measured.parameter: sensor-assay potency score (higher = more potent)

# biosequence, measured.result
records = [
    ("TAGGTCTTGCACTGTATCCGTT", -0.173),
    ("TTAGAGTCACTTCTTCTCCAGC", -1),
    ("TTTGTTGCAGCATCAAAGCAGA", -0.518),
    ("TGAAGCACTGTTTCCGTCGGTC", -0.425),
    ("TTTAATATTGTGCTTTGTGAGA", -0.565),
    ("TTGGAGCACATGCACAATCTTC", -1.22),
    ("TTGTCTTCTGATGGTCACCGTT", -1.02),
    ("TTGCTCGTGGTAGCAGAGCTGG", -1.52),
]

----------
# Lookup of reported sensor-assay potency score (higher = more potent) keyed by entry
biological target: RSPH9; test: pooled miR-30 sensor sort-seq; sequence = guide strand; conditions: shRNA
measured.parameter: sensor-assay potency score (higher = more potent)

# biosequence, measured.result
data = [
    ("TTATTCTTTAGCTCAACAGGCT", -0.377),
    ("TTGATCTGGACCACTATTTCTT", -0.0516),
    ("TTTAGCTCAACAGGCTCCCTGA", -0.548),
    ("TCTTATTCTTTAGCTCAACAGG", -1.48),
    ("TTCACCTTCATTCACCTTCTGC", -0.502),
    ("TATTTCTTCTTCAAAGACTTTT", -0.914),
    ("TCAATGACAGACACCAAGCGGG", -0.168),
]

Entry source: the OligoGym collection
